test.system: PI 3-kinase alpha (Homo sapiens, UniProt P42336)
Sequence (P42336 whole entry): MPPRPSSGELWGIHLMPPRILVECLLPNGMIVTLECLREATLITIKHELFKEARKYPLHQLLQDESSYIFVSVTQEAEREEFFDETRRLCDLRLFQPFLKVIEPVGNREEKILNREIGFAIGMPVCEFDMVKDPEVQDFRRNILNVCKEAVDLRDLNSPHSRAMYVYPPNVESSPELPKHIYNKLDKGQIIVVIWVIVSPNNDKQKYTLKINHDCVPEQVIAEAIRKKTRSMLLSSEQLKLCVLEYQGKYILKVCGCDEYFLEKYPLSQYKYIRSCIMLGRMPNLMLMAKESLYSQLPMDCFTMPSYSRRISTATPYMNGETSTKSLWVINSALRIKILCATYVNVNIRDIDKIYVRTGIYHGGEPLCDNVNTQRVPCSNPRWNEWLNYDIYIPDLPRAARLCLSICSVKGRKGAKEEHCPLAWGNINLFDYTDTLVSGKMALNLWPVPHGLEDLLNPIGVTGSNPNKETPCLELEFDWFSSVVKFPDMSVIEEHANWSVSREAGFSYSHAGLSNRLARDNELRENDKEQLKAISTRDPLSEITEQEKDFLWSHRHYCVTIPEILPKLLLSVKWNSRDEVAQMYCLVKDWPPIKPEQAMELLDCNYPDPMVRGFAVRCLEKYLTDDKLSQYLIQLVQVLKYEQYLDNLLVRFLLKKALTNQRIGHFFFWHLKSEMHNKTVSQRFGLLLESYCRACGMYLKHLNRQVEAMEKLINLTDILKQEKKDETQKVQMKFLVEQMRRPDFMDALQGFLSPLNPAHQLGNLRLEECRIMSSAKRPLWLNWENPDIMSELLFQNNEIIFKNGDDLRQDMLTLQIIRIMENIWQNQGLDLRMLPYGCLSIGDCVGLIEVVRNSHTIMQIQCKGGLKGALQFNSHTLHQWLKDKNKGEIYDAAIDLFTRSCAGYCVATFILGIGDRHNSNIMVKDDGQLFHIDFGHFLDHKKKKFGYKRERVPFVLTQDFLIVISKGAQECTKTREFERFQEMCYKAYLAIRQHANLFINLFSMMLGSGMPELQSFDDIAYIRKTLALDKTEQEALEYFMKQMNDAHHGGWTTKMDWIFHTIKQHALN
assay.remarks: Kinase Glo Luminescent Kinase Assay (Kglo), assay A
Assay type: biochemical
assay.conditions: read-out: Assay A PI3Kα IC50
pIC50: −log10 of the molar value. Structures can show the parent of a compound that is named as a salt.
metric.name: pIC50

Use the examples below as a reference point.
compound | measurement
Cc1ccc(S(=O)(=O)NCC(C)(C)O)cc1-c1cnc(N)c(-c2noc(C3CC3)n2)n1 | 5.63
Cc1ccc(S(=O)(=O)NC[C@@H](C)O)cc1-c1cnc(N)c(-n2cncn2)n1 | 6.55
Cc1ccc(S(=O)(=O)NC[C@](C)(O)C(F)(F)F)cc1-c1cnc(N)c(-n2cncn2)n1 | 6.74
Cc1ccc(S(=O)(=O)NCCC(C)(C)O)cc1-c1cnc(N)c(-c2ccncc2F)n1 | 6.35
Cc1ccc(S(=O)(=O)NCCC(C)(C)O)cc1-c1cnc(N)c(-c2cnc(C3CC3)s2)n1 | 7.10

A: COc1ccncc1-c1nc(-c2cc(S(=O)(=O)NCCC(C)(C)O)ccc2C)cnc1N
B: CCN1CCC[C@@H]1CNS(=O)(=O)c1ccc(C)c(-c2cnc(N)c(-c3cn(C)nc3C)n2)c1 [Example 27, hydrochloride]
C: Cc1ccc(S(=O)(=O)NC[C@H]2CCCO2)cc1-c1cnc(N)c(-n2cncn2)n1
D: CCn1cc(-c2nc(-c3cc(S(=O)(=O)NCC(C)(C)O)ccc3C)cnc2N)nn1
(Q) I would appreciate it if you could sort these 4 compounds by pIC50, starting from the smallest number. Answer by listing the labels in the order asked for.
(A) D, C, A, B

P: Cc1ccc(S(=O)(=O)NCCC(C)(C)O)cc1-c1cnc(N)c(-c2csc(CN3CCOCC3)c2)n1
Q: CC(C)(O)CNS(=O)(=O)c1ccc(Cl)c(-c2cnc(N)c(-n3cncn3)n2)c1
R: Cc1cc(-c2nc(-c3cc(S(=O)(=O)NCCCCCO)ccc3C)cnc2N)ccn1
S: Cc1ncc(-c2nc(-c3cc(S(=O)(=O)NCC4COC4)ccc3C)cnc2N)s1
(Q) Ordering criterion: pIC50; begin with the maximum. Answer by listing the labels in the order asked for.
(A) S, P, R, Q

P: Cc1cc(-c2nc(-c3cc(S(=O)(=O)NCC4(C(N)=O)CCOCC4)ccc3C)cnc2N)ccn1
Q: Cc1ccc(S(=O)(=O)NCCC(C)(C)O)cc1-c1cnc(N)c(-c2cncnc2)n1
(Q) Which entry shows the lesser value of pIC50 here, P or Q ? Respond using the label that marks the chosen record.
(A) Q
(Q: 5.83, P: 6.54)

====

test.system: Vps34 (Homo sapiens)
Sequence (Q8NEB9 whole entry, species assumed): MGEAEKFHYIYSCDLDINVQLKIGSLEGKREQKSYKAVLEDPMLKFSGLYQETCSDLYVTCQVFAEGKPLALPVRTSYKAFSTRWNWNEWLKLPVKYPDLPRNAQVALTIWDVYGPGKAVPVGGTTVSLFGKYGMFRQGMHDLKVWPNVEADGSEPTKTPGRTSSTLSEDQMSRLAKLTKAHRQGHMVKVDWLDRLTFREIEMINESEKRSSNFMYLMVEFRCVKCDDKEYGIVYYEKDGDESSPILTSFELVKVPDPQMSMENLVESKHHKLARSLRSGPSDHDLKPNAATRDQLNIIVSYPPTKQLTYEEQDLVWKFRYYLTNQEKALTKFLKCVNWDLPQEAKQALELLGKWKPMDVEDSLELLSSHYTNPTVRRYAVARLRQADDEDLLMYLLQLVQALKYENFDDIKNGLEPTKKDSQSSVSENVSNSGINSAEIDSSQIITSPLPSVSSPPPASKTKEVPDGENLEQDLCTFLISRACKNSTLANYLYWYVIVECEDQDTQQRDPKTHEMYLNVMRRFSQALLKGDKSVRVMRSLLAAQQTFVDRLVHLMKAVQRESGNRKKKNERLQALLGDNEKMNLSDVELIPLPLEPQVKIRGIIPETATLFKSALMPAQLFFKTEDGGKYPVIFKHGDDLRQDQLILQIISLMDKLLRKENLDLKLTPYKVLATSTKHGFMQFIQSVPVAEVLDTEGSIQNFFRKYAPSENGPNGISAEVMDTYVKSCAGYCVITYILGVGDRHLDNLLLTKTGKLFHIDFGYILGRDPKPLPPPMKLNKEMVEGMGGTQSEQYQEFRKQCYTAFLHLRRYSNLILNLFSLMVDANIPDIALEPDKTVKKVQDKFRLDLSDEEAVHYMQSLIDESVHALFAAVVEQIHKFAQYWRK
assay.remarks: Kinase Glo Luminescent Kinase Assay (Kglo), assay C
Format: biochemical
assay.conditions: read-out: Assay C VPS34 IC50
pIC50: −log10 of the molar value.
metric.name: pIC50

Use the examples below as a reference point.
smiles.code | pIC50
Cc1cc(-c2nc(-c3cc(S(=O)(=O)NCCC(C)(C)O)ccc3C)cnc2N)ccn1 | < 5.04
COC(C)(C)CNS(=O)(=O)c1ccc(C)c(-c2cnc(N)c(-c3ccnc(C)c3)n2)c1 | < 5.04

Would you kindly look at the next entry?
(Q) Look up pIC50 of `Cc1ccc(S(=O)(=O)NCCC(C)(C)O)cc1-c1cnc(N)c(-c2cccs2)n1` and report it.
(A) < 5.04

====

test.system: PI 3-kinase delta (Homo sapiens)
Sequence (O00329 whole entry): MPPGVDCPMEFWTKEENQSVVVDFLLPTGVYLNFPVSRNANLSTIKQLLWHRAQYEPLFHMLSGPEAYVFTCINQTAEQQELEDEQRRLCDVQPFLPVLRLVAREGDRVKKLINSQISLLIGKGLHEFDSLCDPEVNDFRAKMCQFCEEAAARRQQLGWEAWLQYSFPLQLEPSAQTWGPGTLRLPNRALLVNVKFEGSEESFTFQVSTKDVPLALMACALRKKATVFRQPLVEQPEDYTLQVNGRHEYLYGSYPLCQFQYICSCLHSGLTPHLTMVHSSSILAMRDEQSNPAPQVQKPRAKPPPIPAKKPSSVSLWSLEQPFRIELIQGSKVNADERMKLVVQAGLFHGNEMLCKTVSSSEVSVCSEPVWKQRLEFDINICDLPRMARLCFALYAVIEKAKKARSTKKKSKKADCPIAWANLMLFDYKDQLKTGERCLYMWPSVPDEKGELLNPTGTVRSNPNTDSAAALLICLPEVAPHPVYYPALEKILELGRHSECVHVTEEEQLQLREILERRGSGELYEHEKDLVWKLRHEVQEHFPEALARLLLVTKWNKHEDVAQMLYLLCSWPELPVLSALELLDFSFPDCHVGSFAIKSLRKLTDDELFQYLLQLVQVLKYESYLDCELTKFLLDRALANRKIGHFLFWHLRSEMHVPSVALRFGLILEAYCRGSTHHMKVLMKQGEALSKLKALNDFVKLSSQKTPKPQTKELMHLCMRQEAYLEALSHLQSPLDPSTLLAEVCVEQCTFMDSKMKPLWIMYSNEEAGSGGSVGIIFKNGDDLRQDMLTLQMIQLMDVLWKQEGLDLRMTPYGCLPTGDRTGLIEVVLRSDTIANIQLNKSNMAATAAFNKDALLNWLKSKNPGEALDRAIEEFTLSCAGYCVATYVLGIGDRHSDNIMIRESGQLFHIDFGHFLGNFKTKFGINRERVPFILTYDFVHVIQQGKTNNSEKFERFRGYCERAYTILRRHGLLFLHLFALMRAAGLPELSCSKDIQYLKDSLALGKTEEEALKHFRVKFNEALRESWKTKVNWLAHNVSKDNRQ
Sequence (P27986 461-568 partner): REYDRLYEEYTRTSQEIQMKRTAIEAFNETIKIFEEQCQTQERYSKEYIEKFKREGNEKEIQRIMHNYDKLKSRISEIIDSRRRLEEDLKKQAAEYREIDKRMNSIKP
assay.remarks: TR-FRET Adapta assay, assay F
assay.conditions: read-out: Assay F PI3Kδ IC50
pIC50: −log10 of the molar value. Structures can show the parent of a compound that is named as a salt.
metric.name: pIC50

Use the examples below as a reference point.
molecule | test.system | pIC50
Cc1ccc(S(=O)(=O)NCCC2(O)CCCCC2)cc1-c1cnc(N)c(-n2cncn2)n1 | PI 3-kinase delta (Homo sapiens) | 5.82
Cc1ccc(S(=O)(=O)NC(C)C(C)C)cc1-c1cnc(N)c(-n2cncn2)n1 (stereo not shown) | PI 3-kinase delta (Homo sapiens) | 5.85
Cc1ccc(S(=O)(=O)NCCC(C)(C)O)cc1-c1cnc(N)c(-c2cnn(Cc3ccccc3)c2)n1 [Example 132, hydrochloride] | PI 3-kinase delta (Homo sapiens) | 7.30

1: Cc1ccc(S(=O)(=O)NCC2COC2)cc1-c1cnc(N)c(-n2cncn2)n1
2: CCc1noc(-c2nc(-c3cc(S(=O)(=O)NCCC(C)(C)O)ccc3C)cnc2N)n1
(Q) Which entry shows the lesser value of pIC50 here, 1 or 2 ? Respond using the label that marks the chosen record.
(A) 1
(1: 6.12, 2: 6.89)

a: Cc1ncc(-c2nc(-c3cc(S(=O)(=O)NCCC(C)(C)O)ccc3C)cnc2N)s1
b: Cc1ccc(S(=O)(=O)NCC(C)(C)O)cc1-c1cnc(N)c(-c2cnn(CC(F)(F)F)n2)n1
c: Cc1cc(-c2nc(-c3cc(S(=O)(=O)NCCN(C)C)ccc3C)cnc2N)ccn1
d: CC(C)(O)CNS(=O)(=O)c1cccc(-c2cnc(N)c(-n3cncn3)n2)c1
(Q) I would appreciate it if you could sort these 4 molecules by pIC50, starting from the smallest number. Answer by listing the labels in the order asked for.
(A) d, c, b, a

====

test.system: PI 3-kinase beta (Homo sapiens)
Sequence (P42338 whole entry): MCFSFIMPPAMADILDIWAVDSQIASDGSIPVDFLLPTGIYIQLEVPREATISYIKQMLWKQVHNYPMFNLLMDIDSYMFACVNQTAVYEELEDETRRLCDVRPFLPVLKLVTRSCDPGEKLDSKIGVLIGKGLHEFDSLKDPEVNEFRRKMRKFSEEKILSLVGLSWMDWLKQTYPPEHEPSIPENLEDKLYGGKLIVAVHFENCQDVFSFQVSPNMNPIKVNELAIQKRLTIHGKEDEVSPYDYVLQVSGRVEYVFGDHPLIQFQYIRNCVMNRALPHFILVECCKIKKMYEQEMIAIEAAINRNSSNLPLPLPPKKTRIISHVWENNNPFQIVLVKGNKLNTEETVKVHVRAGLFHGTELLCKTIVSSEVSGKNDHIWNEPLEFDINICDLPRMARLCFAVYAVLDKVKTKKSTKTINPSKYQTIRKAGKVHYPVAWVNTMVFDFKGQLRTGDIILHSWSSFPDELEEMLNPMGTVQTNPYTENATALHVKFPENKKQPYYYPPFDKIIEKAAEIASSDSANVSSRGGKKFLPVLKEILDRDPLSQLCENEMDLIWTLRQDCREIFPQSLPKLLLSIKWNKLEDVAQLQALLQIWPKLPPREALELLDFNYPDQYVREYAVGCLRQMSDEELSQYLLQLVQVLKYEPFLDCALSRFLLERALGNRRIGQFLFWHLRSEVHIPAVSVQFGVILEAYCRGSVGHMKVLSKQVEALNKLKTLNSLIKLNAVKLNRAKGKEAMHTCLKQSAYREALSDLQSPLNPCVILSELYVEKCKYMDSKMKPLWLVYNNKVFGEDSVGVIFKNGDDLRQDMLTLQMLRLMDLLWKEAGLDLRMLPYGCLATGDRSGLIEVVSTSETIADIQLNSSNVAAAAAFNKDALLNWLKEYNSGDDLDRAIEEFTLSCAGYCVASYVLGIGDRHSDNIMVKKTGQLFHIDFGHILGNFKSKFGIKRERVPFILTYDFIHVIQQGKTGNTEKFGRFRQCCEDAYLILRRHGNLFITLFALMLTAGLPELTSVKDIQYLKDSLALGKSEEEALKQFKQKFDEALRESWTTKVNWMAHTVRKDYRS
Sequence (P27986 461-568 partner): as the sequence (P27986 461-568 partner) above
assay.remarks: Kinase Glo Luminescent Kinase Assay (Kglo), assay B
Type: biochemical
assay.conditions: read-out: Assay B PI3Kβ IC50
metric.name: IC50 (nM)

Use the examples below as a reference point.
compound | test.system | measure.unit | IC50
Cc1nc(-c2nc(-c3cc(S(=O)(=O)NCCC(C)(C)O)ccc3C)cnc2N)cs1 | PI 3-kinase beta (Homo sapiens) | nM | 1500
Cc1nnc(-c2nc(-c3cc(S(=O)(=O)NCC(C)(C)O)ccc3C)cnc2N)o1 | PI 3-kinase beta (Homo sapiens) | nM | 940
Cc1cc(-c2nc(-c3cc(S(=O)(=O)NC4CCC(CO)CC4)ccc3C)cnc2N)ccn1 (stereo not shown) | PI 3-kinase beta (Homo sapiens) | nM | 6300
Cc1cn(-c2nc(-c3cc(S(=O)(=O)NCCC(C)(C)O)ccc3C)cnc2N)cn1 | PI 3-kinase beta (Homo sapiens) | nM | 3930
Cc1ccc(S(=O)(=O)NCCC(C)(C)O)cc1-c1cnc(N)c(-c2cnn(Cc3ccccn3)c2)n1 | PI 3-kinase beta (Homo sapiens) | nM | 3000

1: Cc1ccc(S(=O)(=O)NCC2(C)COC2)cc1-c1cnc(N)c(-n2cncn2)n1
2: CCN1CCC[C@@H]1CNS(=O)(=O)c1ccc(C)c(-c2cnc(N)c(-c3ccnc(C)c3)n2)c1
3: Cc1cc(-c2nc(-c3cc(S(=O)(=O)N4CCC(N)CC4)ccc3C)cnc2N)ccn1
4: Cc1ccc(S(=O)(=O)NCCC(F)(F)F)cc1-c1cnc(N)c(-n2cncn2)n1
(Q) Ordering criterion: IC50; begin with the maximum. Answer by listing the labels in the order asked for.
(A) 1, 3, 2, 4
(1: 6800 nM, 3: 4000 nM, 2: 2300 nM, 4: 1550 nM)

====

test.system: Vps34 (Homo sapiens)
assay.remarks: Kinase Glo Luminescent Kinase Assay (Kglo), assay C
Assay type: biochemical
assay.conditions: read-out: Assay C VPS34 IC50
pIC50: −log10 of the molar value.
metric.name: pIC50

compound | pIC50
Cc1ccc(S(=O)(=O)NCCC(C)(C)O)cc1-c1cnc(N)c(-c2ccc(OC3CCOCC3)nc2)n1 | < 5.04
Cc1ccc(S(=O)(=O)NCC2(O)CCOCC2)cc1-c1cnc(N)c(-n2cncn2)n1 | < 5.00
Cc1ccc(S(=O)(=O)N[C@H]2CC[C@H](O)CC2)cc1-c1cnc(N)c(-c2cnn(C)c2)n1 | 5.51
Cc1ccc(S(=O)(=O)NCC(C)(C)O)cc1-c1cnc(N)c(-c2cnc(C3CC3)s2)n1 | 5.85
Cc1ncn(-c2nc(-c3cc(S(=O)(=O)NCC(C)(C)O)ccc3C)cnc2N)n1 | < 5.00

(Q) Please report pIC50 with Vps34 (Homo sapiens) for item `Cc1ccc(S(=O)(=O)NCC2(CO)CC2)cc1-c1cnc(N)c(-n2cncn2)n1` .
(A) < 5.00

(Q) Please report pIC50 with Vps34 (Homo sapiens) for item `Cc1ccc(S(=O)(=O)NCC(C)(C)N2CCOCC2)cc1-c1cnc(N)c(-n2cncn2)n1` .
(A) < 5.00

(Q) Please report pIC50 with Vps34 (Homo sapiens) for item `COCCCNS(=O)(=O)c1ccc(C)c(-c2cnc(N)c(-n3cncn3)n2)c1` .
(A) < 5.00

====

test.system: UniProt P42336
assay.remarks: Kinase Glo Luminescent Kinase Assay (Kglo), assay A
Format: biochemical
assay.conditions: read-out: Assay A PI3Kα IC50
pIC50: −log10 of the molar value. Counter-ions that a name gives are not always drawn.
metric.name: pIC50

compound | measurement
Cc1ccc(S(=O)(=O)NCC2CCN(C)C2)cc1-c1cnc(N)c(-n2cncn2)n1 (stereo not shown) [Example 127.18] | 5.72
Cc1ncc(-c2nc(-c3cc(S(=O)(=O)NC[C@H]4CCCO4)ccc3C)cnc2N)s1 (single isomer, unassigned) [Example 45.6a] | 7.15
Cc1cc(-c2nc(-c3cc(S(=O)(=O)NCCC(C)(O)C(F)(F)F)ccc3C)cnc2N)ccn1 (stereo not shown) [Example 129.13] | 6.52
Cc1ccc(S(=O)(=O)NCCC(C)(C)O)cc1-c1cnc(N)c(-c2ccnc(F)c2)n1 [Example 119.10] | 6.92
Cc1ccc(S(=O)(=O)NCCC(C)(C)O)cc1-c1cnc(N)c(-c2cnn(Cc3ccccc3)c2)n1 [Example 132, hydrochloride] | 6.74
Cc1ccc(S(=O)(=O)NCCC2(O)CCCCC2)cc1-c1cnc(N)c(-n2cncn2)n1 [Example 127.37] | 6.19
COc1ncccc1-c1nc(-c2cc(S(=O)(=O)NCCC(C)(C)O)ccc2C)cnc1N [Example 119.4] | 5.55
Cc1ccc(S(=O)(=O)NCCC(C)(C)O)cc1-c1cnc(N)c(-c2cccnc2Cl)n1 [Example 119.6] | 6.09

I: Cc1ccc(S(=O)(=O)NC[C@H]2CCNC2)cc1-c1cnc(N)c(-n2cncn2)n1 [Example 127.58, trifluoroacetic acid salt]
II: Cc1cc(-c2nc(-c3cc(S(=O)(=O)NC[C@H](C)O)ccc3C)cnc2N)ccn1 [Example 129.9]
(Q) Which entry shows the lesser value of pIC50 here, I or II ? Respond using the label that marks the chosen record.
(A) I
